Just for reference, patent US9695155B2 is where these values come from.

- System: wheat
- test_summary: Test A postemergence
- Format: in vivo, Triticum aestivum
- experimental_context: 125 g ai/ha, 0 to 100 scale, 0 no effect, 100 complete control
Reported Plant response rating, Wheat values follow for various compounds
API note: the answer field is a bare number with no unit suffix.

structure_as_smiles: Clc1cnc(Oc2cccc(-c3cnoc3)c2-n2cc(Br)cn2)nc1
subject_of_test: wheat
Plant response rating, Wheat: 0

structure_as_smiles: FC(F)(F)c1cnn(-c2c(Oc3ncc(Cl)cn3)cccc2-c2ncon2)c1
subject_of_test: wheat
Plant response rating, Wheat: 30

structure_as_smiles: Cc1cn(-c2c(C#N)cccc2Oc2ncc(Cl)cn2)cn1
subject_of_test: wheat
Plant response rating, Wheat: 0

structure_as_smiles: Cc1cc(C(F)(F)F)nn1-c1ccccc1Oc1ncc(Cl)cn1
subject_of_test: wheat
Plant response rating, Wheat: 0

structure_as_smiles: N#Cc1cn(-c2c(C#N)cccc2Oc2ncc(Cl)cn2)nn1
subject_of_test: wheat
Plant response rating, Wheat: 10

structure_as_smiles: CC1(C)OB(c2cnn(-c3c(C#N)cccc3Oc3ncc(Cl)cn3)c2)OC1(C)C
subject_of_test: wheat
Plant response rating, Wheat: 0

structure_as_smiles: FC(F)Oc1cnn(-c2c(Cl)cccc2Oc2ncc(Cl)cn2)c1
subject_of_test: wheat
Plant response rating, Wheat: 50

Can you share its Plant response rating, Wheat? I mean this compound: N#Cc1cnn(-c2c(CF)cccc2Oc2ncc(Br)cn2)c1
20

###

- Tested on: morningglory
- test_summary: Test E preemergence
- Assay type: in vivo, Ipomoea coccinea
- experimental_context: 31 g ai/ha, scale 0 to 100 (0 no effect, 100 complete control)
quantity_measured: Morningglory plant response rating

Check out these entries, answers already filled in.
structure_as_smiles: N#Cc1cccc(Oc2ncc(Cl)cn2)c1-n1cc(Br)cn1
Morningglory plant response rating: 5
//
structure_as_smiles: N#Cc1cccc(Oc2ncc(Cl)cn2)c1-n1cc(Cl)cn1
Morningglory plant response rating: 0
//
structure_as_smiles: NC(=S)c1cccc(Oc2ncc(Cl)cn2)c1-n1cc(Cl)cn1
Morningglory plant response rating: 0

Now for another entry.
Which Morningglory plant response rating reading was recorded for the molecule Cc1cnc(Oc2cccc(C#N)c2-n2cc(C#N)cn2)nc1 ?
0

###

- System: yellow nutsedge
- test_summary: Test C preemergence
- Assay type: in vivo, Cyperus esculentus
- experimental_context: 16 g ai/ha, preemergence; scale 0 to 100 (0 no effect, 100 complete control)
quantity_measured: Nutsedge, Yellow plant response rating

Please review the entries below; each comes with its answer.
compound: N#Cc1cnn(-c2c(Oc3ncc(F)cn3)cccc2C(F)F)c1 [Compound 240]
Nutsedge, Yellow plant response rating: 0

compound: Cc1cnc(Oc2cccc(C#N)c2-n2cc(C(F)(F)F)cn2)nc1 [Compound 180]
Nutsedge, Yellow plant response rating: 5

compound: FC(F)c1cccc(Oc2ncc(Cl)cn2)c1-n1cc(C(F)(F)F)cn1 [Compound 170]
Nutsedge, Yellow plant response rating: 0

compound: Fc1cnc(Oc2cccc(C(F)F)c2-n2cc(C(F)(F)F)cn2)nc1 [Compound 164]
Nutsedge, Yellow plant response rating: 0

Okay, now this compound:
Name the recorded Nutsedge, Yellow plant response rating for Fc1cnc(Oc2cccc(C(F)F)c2-n2cc(Cl)cn2)nc1 [Compound 94] .
0

###

Plant response rating, Crabgrass, Large listing for selected molecules.
- Tested on: large (Lg) crabgrass
- test_summary: Test C postemergence
- Type: in vivo, Digitaria sanguinalis
- experimental_context: 125 g ai/ha, postemergence; visual rating, scale 0 to 100 (0 no effect, 100 complete control)
# print the numeric value only

molecule: N#Cc1cn(-c2c(C#N)cccc2Oc2ncc(Cl)cn2)nn1 [Compound 273]
Plant response rating, Crabgrass, Large: 10
--
molecule: Clc1cnc(Oc2cccc(Cl)c2-n2cc(I)cn2)nc1 [Compound 181]
Plant response rating, Crabgrass, Large: 10
--
molecule: Clc1cnc(Oc2cccc(Br)c2-n2cc(I)nn2)nc1 [Compound 117]
Plant response rating, Crabgrass, Large: 20
--
molecule: Clc1cnc(Oc2cccc(Cl)c2-n2cc(Cl)cn2)nc1 [Compound 220]
Plant response rating, Crabgrass, Large: 5
--
molecule: Fc1cnc(Oc2ccccc2-n2cc(C(F)F)cn2)nc1 [Compound 228]
Plant response rating, Crabgrass, Large: 5
--
molecule: FC(F)c1cnn(-c2c(Br)cccc2Oc2ncc(Cl)cn2)c1 [Compound 232]
Plant response rating, Crabgrass, Large: 5
--
molecule: FC(F)Oc1cnn(-c2c(Cl)cccc2Oc2ncc(Cl)cn2)c1 [Compound 258]
Plant response rating, Crabgrass, Large: 15
--
molecule: FCc1cn(-c2ccccc2Oc2ncc(Cl)cn2)nn1 [Compound 123]
Plant response rating, Crabgrass, Large: 5

Would you kindly look at the next entry?
Item FC(F)c1cnn(-c2c(Cl)cccc2Oc2ncc(Cl)cn2)c1 [Compound 192] has what recorded Plant response rating, Crabgrass, Large?
5
